- TARGET_SYSTEM: hippocampus homogenates of one AD patient (tau) (Homo sapiens)
- PROTOCOL_SUMMARY: Saturation binding assay of ^3H-THK5117 in hippocampus homogenates
- CONDITION_LABEL: one Alzheimer brain, low affinity site, read-out: Kd, second binding site
READOUT_LABEL: Kd (nM)
Use nM as the unit, but write only the number.

Which Kd value is on record for CNc1ccc(-c2ccc3cc(OCC(O)CF)ccc3n2)cc1 (stereo not shown) ?
34

====

- TARGET_SYSTEM: post-mortem AD temporal brain tissue homogenates (tau) (Homo sapiens)
- Sequence (P10636 623-758 limits assumed): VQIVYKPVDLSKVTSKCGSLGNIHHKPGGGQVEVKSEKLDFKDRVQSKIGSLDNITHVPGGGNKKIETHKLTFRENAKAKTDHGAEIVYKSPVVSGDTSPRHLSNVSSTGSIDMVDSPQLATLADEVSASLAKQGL
- PROTOCOL_SUMMARY: Saturation binding assay of ^3H-THK5117 in temporal cortex homogenates
- CONDITION_LABEL: AD temporal lobe homogenates; high affinity site, determined manually from Scatchard plot; averaged from seven experiments; read-out: Kd1
READOUT_LABEL: pKd
By convention, pKd is the negative base-10 log of a molar concentration.

State the recorded pKd for this entry: CNc1ccc(-c2ccc3cc(OCC(O)CF)ccc3n2)cc1 (stereo not shown)
8.66

====

- TARGET_SYSTEM: ^3H-THK5117 binding sites in AD temporal cortex homogenates (tau) (Homo sapiens)
- PROTOCOL_SUMMARY: Competition binding against ^3H-THK5117 (3 nM) in temporal cortex homogenates
- CONDITION_LABEL: AD temporal cortices; potential third site, model constraint >100 for start of curve; ten experiments; read-out: Ki1
READOUT_LABEL: Ki (pM)
Numbers only here, please. The scale is pM.

So what does the record say about Ki for CNc1ccc(-c2ccc3cc(OCC(O)CF)ccc3n2)cc1 (stereo not shown) [THK5117] ?
1

====

- TARGET_SYSTEM: ^3H-THK5117 binding sites in AD temporal cortex homogenates (tau) (Homo sapiens)
- PROTOCOL_SUMMARY: Competition binding against ^3H-THK5117 (3 nM) in temporal cortex homogenates
- CONDITION_LABEL: AD temporal cortices; ^3H-THK5117 3 nM; averaged from ten experiments; read-out: Ki2
READOUT_LABEL: pKi
Reminder that pKi means the negative base-10 logarithm of the concentration expressed in mol/L.

Data request, read-out pKi, for CNc1ccc(-c2ccc3cc(OCC(O)CF)ccc3n2)cc1 (stereo not shown)
7.80
